Listing: AUC(0-inf) of selected compounds
assay_text: AUC (0 to infinity) in Wistar rat at 2 mg/kg, iv
Type: ADME, organism-based
Design: dose 2 mg/kg, route intravenous, time infinity
condition_details: plasma
recorded_metric: AUC(0-inf) (µM·h)

> print(dat)
                                 mol.smiles  measured.value
1  Cn1ncc(C(=O)N2CCC(Nc3cc(=O)n(C)c4ccccc34)CC2)c1Cl             3.4
2  Cn1ncc(C(=O)N2CCC(Nc3cc(=O)[nH]c4cc(F)c(F)cc34)CC2)c1Cl             1.2

====

assay_text: Permeability of the compound from apical to basolateral side in human Caco2 cells
Assay type: ADME, cell-based
condition_details: Caco-2, read-out: permeability
Collected Papp A→B values appear next to each entry.
recorded_metric: Papp A→B

> print(dat)
                                 mol.smiles  measured.value
1  Cc1onc(C(=O)N2[C@@H]3CC[C@H]2C[C@@H](Nc2cc(=O)n(C)c4cc(F)c(F)cc24)C3)c1C   23 ×10⁻⁶ cm/s
2  Cc1onc(C(=O)N2CCC(Nc3cc(=O)n(C)c4cc(F)c(F)cc34)CC2)c1C   22 ×10⁻⁶ cm/s
3  Cn1ncc(C(=O)N2[C@@H]3CC[C@H]2C[C@@H](Nc2cc(=O)n(C)c4ncccc24)C3)c1Cl    1 ×10⁻⁶ cm/s
4  Cn1ncc(C(=O)N2CCC(Nc3cc(=O)[nH]c4ccccc34)CC2)c1Cl  0.5 ×10⁻⁶ cm/s

====

assay_text: AUC (0 to infinity) in Wistar rat at 10 mg/kg, po
Type: ADME, organism-based
Parameters: time infinity, dose 10 mg/kg, route oral
condition_details: plasma
recorded_metric: AUC(0-inf) (µM·h)

> print(dat)
                                 mol.smiles  measured.value
1  Cn1ncc(C(=O)N2CCC(Nc3cc(=O)n(C)c4ccccc34)CC2)c1Cl              19
2  Cn1ncc(C(=O)N2CCC(Nc3cc(=O)[nH]c4cc(F)c(F)cc34)CC2)c1Cl            0.04

====

Entries and their MIC
Test system: Mycobacterium tuberculosis
assay_text: Antimycobacterial activity against Mycobacterium tuberculosis H37Rv after 5 days by standard microdilution method
Type: functional
condition_details: 120 h

compound	MIC
Cc1onc(C(=O)N2CCC(Nc3cc(=O)n(C)c4cc(F)c(F)cc34)CC2)c1C	0.78 µM
Cn1ncc(C(=O)N2CCC(Nc3cc(=O)[nH]c4c(F)cccc34)CC2)c1Cl	3.1 µM
Cc1onc(C(=O)N2[C@@H]3CC[C@H]2C[C@@H](Nc2cc(=O)n(C)c4nccnc24)C3)c1C	6.2 µM
COc1nc2ccc(Br)cc2cc1[C@@H](c1ccccc1)[C@@](O)(CCN(C)C)c1cccc2ccccc12 [BEDAQUILINE]	0.78 µM
C[C@H]1C[C@H](Nc2cc(=O)[nH]c3ccccc23)CCN1C(=O)c1cnn(C)c1Cl	12.5 µM
CO[C@H]1/C=C/O[C@@]2(C)Oc3c(C)c(O)c4c(O)c(c(/C=N/N5CCN(C)CC5)c(O)c4c3C2=O)NC(=O)/C(C)=C\C=C\[C@H](C)[C@H](O)[C@@H](C)[C@@H](O)[C@@H](C)[C@H](OC(C)=O)[C@@H]1C [RIFAMPIN]	0.01 µM
Cn1ncc(C(=O)N2CCC(Nc3n[nH]c4ccc(F)cc34)CC2)c1Cl	> 100 µM
Cn1ncc(C(=O)N2CC(Nc3cc(=O)[nH]c4ccccc34)C2)c1Cl	50 µM
Cn1ncc(C(=O)N2CCC(Nc3cc(=O)n(C)c4ccccc34)CC2)c1Cl	25 µM
